Test system: MDCK
Assay: Cytotoxicity against dog MDCK cells assessed as reduction in cell viability measured after 5 to 6 days by MTS assay
Type: cell-based, Canis lupus familiaris
readout-kind: CC50

Examples from the recorded data:
molecule | target | CC50
CC1(C)N=C(N)N=C(N)N1c1ccc(Cl)c(Cl)c1 [CHLORCYCLOGUANIL] | MDCK | 6.7 µM
NC1=NC2(CCCCC2)N(c2cccc(C(F)(F)F)c2)C(N)=N1 | MDCK | > 100 µM
NC12CC3CC(CC(C3)C1)C2 [AMANTADINE] | MDCK | > 400 µM
CC1(C)N=C(N)N=C(N)N1c1ccccc1 | MDCK | > 100 µM
CC1(C)N=C(N)N=C(N)N1c1ccc(C(=O)O)cc1 | MDCK | > 100 µM
[H]/N=C(\N/C(=N/[H])Nc1ccc(Cl)cc1)NC(C)C [PROGUANIL] | MDCK | > 100 µM
CC1(C)N=C(N)N=C(N)N1c1ccccc1Cl | MDCK | > 100 µM
CC(N)C12CC3CC(CC(C3)C1)C2 (centres undefined) [RIMANTADINE] | MDCK | > 400 µM

For each entry beneath this line, provide reported CC50.
1. CC1(C)N=C(N)N=C(N)N1c1ccc(Cl)cc1 [CYCLOGUANIL]
2. NC1=NC2(CCCC2)N(c2cccc(C(F)(F)F)c2)C(N)=N1
3. NC1=NC2(CCCC2)N(c2ccc(Cl)cc2)C(N)=N1
4. CC1(C)N=C(N)N=C(N)N1c1cc(C(F)(F)F)cc(C(F)(F)F)c1
5. NC1=NC2(CCCCC2)N(c2cccc(Cl)c2)C(N)=N1

Response given:
1: 52 µM; 2: > 100 µM; 3: > 100 µM; 4: > 100 µM; 5: > 100 µM

For each entry beneath this line, provide reported CC50.
1. COc1ccc(N2C(N)=NC(N)=NC2(C)C)cc1
2. CC(C)C1(C)N=C(N)N=C(N)N1c1ccc(Cl)cc1 (centres undefined)

Response given:
1: > 100 µM; 2: > 100 µM

For each entry beneath this line, provide reported CC50.
1. N=C(N)NC(=N)Nc1ccc(Cl)cc1 [4-CHLOROPHENYLBIGUANIDE]
2. CC1(C)N=C(N)N=C(N)N1c1cccc(F)c1
3. NC1=NC(c2ccccc2)N(c2ccc(Cl)cc2)C(N)=N1 (centres undefined)
4. CC1(C)N=C(N)N=C(N)N1c1ccc(Br)cc1
5. CCc1nc(N)nc(N)c1-c1ccc(Cl)cc1 [PYRIMETHAMINE]

Response given:
1: > 100 µM; 2: > 100 µM; 3: > 100 µM; 4: 53 µM; 5: 41 µM

====

System: Respiratory syncytial virus
Assay: microbe, parasite or virus in culture
Settings: human respiratory syncytial virus, HeLa
readout-kind: EC50 (µM)
Numbers only, in µM.

Challenge: Could you tell me which EC50 is on file for `CC1(C)N=C(N)N=C(N)N1c1cccc(C(F)(F)F)c1` ?
Response given: 0.03

====

Kindly state CC50 for each of the entries shown.
System: MDCK
Test: Cytotoxicity against dog MDCK cells assessed as reduction in cell viability measured after 5 to 6 days by MTS assay
Assay type: cell-based, Canis lupus familiaris

Examples from the recorded data:
compound | target | CC50
CC1(C)N=C(N)N=C(N)N1c1ccc(Cl)cc1Cl | MDCK | > 100 µM
CC1(C)N=C(N)N=C(N)N1c1cccc(C(F)(F)F)c1 | MDCK | 6.1 µM
CC(=O)N[C@H]1[C@H]([C@H](O)[C@H](O)CO)OC(C(=O)O)=C[C@@H]1N=C(N)N | MDCK | > 100 µM
CC1(C)N=C(N)N=C(N)N1c1ccc([N+](=O)[O-])cc1 | MDCK | > 100 µM
CC1(C)N=C(N)N=C(N)N1c1cccc(Br)c1 | MDCK | 29 µM
CCOC(=O)c1ccc(N2C(N)=NC(N)=NC2(C)C)cc1 | MDCK | > 100 µM
NC1=NC2(CCCC2)N(c2cccc(Cl)c2)C(N)=N1 | MDCK | > 100 µM
CC1(C)N=C(N)N=C(N)N1c1ccc(F)cc1 | MDCK | > 100 µM
CC1(C)N=C(N)N=C(N)N1c1cccc(Cl)c1 | MDCK | 1.4 µM
NC1=NC2(CCCCC2)N(c2ccc(Cl)cc2)C(N)=N1 | MDCK | > 100 µM

Next item in the queue.
Challenge: Kindly state the measured CC50 obtained for CCCC1N=C(N)N=C(N)N1c1ccc(Cl)cc1 (stereo unspecified) with MDCK.
Response given: > 100 µM
